tested on: GB4; assay: qHTS profiling for inhibitors of Plasmodium falciparum proliferation (AID 504749); note: nearly all actives have a fitted effect of over 60% in size; note: potency is the fitted concentration of half-maximal effect; details: P. falciparum in erythrocytes, SYBR Green DNA, 72 h; series mostly up to 28.7 µM
Results filed as inconclusive are left out. Activity calls are given as the source filed them. Calls come from the whole dose curve; as a rule, active = well fitted inhibition curve with a large enough effect; inconclusive = small, poorly fitted or top-dose-only effect; inactive = flat fitted curve, though single readings scatter.

>  <Compound>
C#CCOc1ccc2c(C)cc(=O)oc2c1

>  <Potency>
inactive

$$$$
>  <Compound>
CCCCCCCC/C=C\CCCCCCCC(=O)O

>  <Potency>
inactive

$$$$
>  <Compound>
Cc1c(C)c2c(c(C)c1O)CC[C@@](C)(CCC[C@@H](C)CCC[C@@H](C)CCCC(C)C)O2

>  <Potency>
inactive

$$$$
>  <Compound>
CC[C@@]1(O)C(=O)OCc2c1cc1n(c2=O)Cc2cc3c([N+](=O)[O-])cccc3nc2-1

>  <Potency>
6.75 µM (active)

$$$$
>  <Compound>
O=C(O)CN(CCN(CC(=O)O)CC(=O)O)CC(=O)O

>  <Potency>
inactive

$$$$
>  <Compound>
CC(NNC(=O)c1ccccc1)c1ccccc1 (stereo unspecified)

>  <Potency>
inactive

$$$$

----------
test: Primary qHTS for inhibitors of nuclear receptor binding SET domain protein 2 (NSD2) in an isogenic RCH-ACV NSD2 p.E1099K mutant (9B) (AID 1645876); conditions: RCH-ACV (leukaemia line) NSD2 E1099K (9B) viability, CellTiter-Glo, 72 h; series mostly up to 44.9 µM; note: % is set by controls: 0 for no effect and ±100 for the full control effect; nearly all actives have a fitted effect of over 70% in size
Records with an inconclusive call do not appear. Calls of active or inactive are those of the source. Calls come from the whole dose curve; as a rule, active = well fitted inhibition curve with a large enough effect; inconclusive = small, poorly fitted or top-dose-only effect; inactive = flat fitted curve, though single readings scatter.
Result Type: activity change, negative = viability loss

>  <Compound>
C[C@@H]1O[C@@H](O[C@H]2[C@H](OC(=O)C34CCC(C)(C)CC3C3=CCC5C6(C)CC(O)C(O[C@@H]7O[C@H](CO)[C@@H](O)[C@H](O)[C@H]7O)C(C)(C(=O)O)C6CCC5(C)C3(CO)CC4)O[C@H](C)[C@H](O)[C@@H]2O)[C@H](O)[C@H](O)[C@H]1O[C@@H]1OC[C@@H](O)[C@H](O)[C@H]1O (stereo partly drawn)

>  <Result>
3.3% [at 9.23 µM] (inactive)

$$$$
>  <Compound>
C=C1CC[C@H]2[C@@](C)(CCC[C@@]2(C)C(=O)O)[C@@H]1CCC(C)CCO (stereo partly drawn)

>  <Result>
inactive

$$$$
>  <Compound>
CC1=CC2(O)/C=C/C(C)(O)CC(O)/C=C/C(=O)OC23C(=O)NC(CC(C)C)C3C1C (stereo not drawn)

>  <Result>
inactive

$$$$

----------
test system: CP238; experiment: qHTS profiling for inhibitors of Plasmodium falciparum proliferation (AID 504749); note: nearly all actives have a fitted effect of over 60% in size; conditions: P. falciparum in erythrocytes, SYBR Green DNA, 72 h; series mostly up to 28.7 µM
Inconclusive results are not listed. Activity calls are given as the source filed them. Calls come from the whole dose curve; as a rule, active = well fitted inhibition curve with a large enough effect; inconclusive = small, poorly fitted or top-dose-only effect; inactive = flat fitted curve, though single readings scatter. Peptide text beside a SMILES is read from it.
Labels: active, inactive

>  <Compound>
C[C@]12O[C@H](C[C@]1(O)CO)n1c3ccccc3c3c4c(c5c6ccccc6n2c5c31)CNC4=O

>  <Class Label>
active

$$$$
>  <Compound>
Oc1cc(O)c2c(c1)OC(c1ccc(O)c(O)c1)C(O)C2 (stereo not given)

>  <Class Label>
inactive

$$$$
>  <Compound>
C=CCSSSCC=C

>  <Class Label>
inactive

$$$$
>  <Compound>
CC(C)(C)C(=O)OCOC(=O)[C@@H]1N2C(=O)[C@@H](N=CN3CCCCCC3)[C@H]2SC1(C)C

>  <Class Label>
inactive

$$$$
>  <Compound>
O=C(O)CCC(=O)C(=O)O

>  <Class Label>
inactive

$$$$
>  <Compound>
CCCC(=O)O[C@]1(C(=O)CCl)[C@H](C)C[C@@H]2[C@H]3CCC4=CC(=O)C=C[C@]4(C)[C@@]3(F)C(=O)C[C@@]21C

>  <Class Label>
active

$$$$
>  <Compound>
CC[N+](C)(C)Cc1ccccc1Br

>  <Class Label>
inactive

$$$$
>  <Compound>
CCCCCCCC/C=C\CCCCCCCC(=O)O

>  <Class Label>
inactive

$$$$
>  <Compound>
CCOc1ccc(N=Nc2ccc(N)cc2N)cc1

>  <Class Label>
inactive

$$$$
>  <Compound>
CC(=O)N[C@@H](CC(=O)O)C(=O)N[C@@H](CCC(=O)O)C(=O)O (Ac-Asp-Glu-OH)

>  <Class Label>
inactive

$$$$
>  <Compound>
O=S(=O)(O)c1cc(O)c2c(N=Nc3ccc(Nc4ccccc4)c4c(S(=O)(=O)O)cccc34)cc(S(=O)(=O)O)cc2c1

>  <Class Label>
inactive

$$$$
>  <Compound>
Cc1ccccc1

>  <Class Label>
inactive

$$$$
>  <Compound>
CC1=C(/C=C/C(C)=C/C=C/C(C)=C/C=C/C=C(C)/C=C/C=C(C)/C=C/C2=C(C)C(=O)CCC2(C)C)C(C)(C)CCC1=O

>  <Class Label>
inactive

$$$$
>  <Compound>
Cc1cc(C(=O)NNCc2ccccc2)no1

>  <Class Label>
inactive

$$$$
>  <Compound>
COC(C(=O)C(O)C(C)O)C1Cc2cc3cc(OC4CC(OC5CC(O)C(O)C(C)O5)C(O)C(C)O4)c(C)c(O)c3c(O)c2C(=O)C1OC1CC(OC2CC(OC3CC(C)(O)C(O)C(C)O3)C(O)C(C)O2)C(O)C(C)O1 (stereo not given)

>  <Class Label>
active

$$$$
>  <Compound>
COC(=O)[C@H]1[C@H]2CC3c4[nH]c5ccccc5c4CCN3C[C@@H]2CC[C@@H]1O (stereo not given in full)

>  <Class Label>
inactive

$$$$
>  <Compound>
CCCCCCC(O)C/C=C/CCCCCCCC(=O)O (stereo not given)

>  <Class Label>
inactive

$$$$
>  <Compound>
O=C(O)c1cc(=O)c2c3nc4ccccc4oc-3cc(=O)c2[nH]1

>  <Class Label>
inactive

$$$$
>  <Compound>
NC(=O)c1ncn(C2OC(CO)C(O)C2O)n1 (stereo not given)

>  <Class Label>
inactive

$$$$
>  <Compound>
CC1=C(/C=C/C(C)=C/C=C/C(C)=C/C=C/C=C(C)/C=C/C=C(C)/C=C/C2=C(C)CCCC2(C)C)C(C)(C)CCC1

>  <Class Label>
inactive

$$$$
